The reported measurements were obtained from BindingDB's records for doi:10.1021/acs.jmedchem.8b00408.

- assay-name: Binding affinity to human RFC2 expressed in human HeLa R1-11 cells assessed as antiproliferative activity measured as reduction in cell growth after 96 hrs by Cell-Titer Blue assay
Entries and their pIC50
Scale note: pIC50 = -log10(concentration in M).

| mol | measured-number |
| --- | --- |
| Nc1nc2[nH]c(CCCc3csc(C(=O)N[C@@H](CCC(=O)O)C(=O)O)c3F)cc2c(=O)[nH]1 | 7.18 |
| Nc1nc2[nH]c(CCCCc3ccc(C(=O)N[C@@H](CCC(=O)O)C(=O)O)nc3)cc2c(=O)[nH]1 | 6.20 |
| Nc1nc2[nH]c(CCCCc3csc(C(=O)N[C@@H](CCC(=O)O)C(=O)O)c3F)cc2c(=O)[nH]1 | 6.67 |

# return recorded pIC50 for entry `Nc1nc2[nH]c(CCCc3csc(C(=O)N[C@@H](CCC(=O)O)C(=O)O)c3)cc2c(=O)[nH]1` 7.20

Write down pIC50 measured for item `Nc1nc2[nH]c(CCCc3ccc(C(=O)N[C@@H](CCC(=O)O)C(=O)O)c(F)c3)cc2c(=O)[nH]1` 6.29

Fill in pIC50 for record `Nc1nc2[nH]c(CCCc3ccc(C(=O)N[C@@H](CCC(=O)O)C(=O)O)s3)cc2c(=O)[nH]1` 6.35
